tested on: HL-60; assay: NCI tumour cell line growth inhibition, 48 h
Calls of active or inactive are those of the source. Cut-off read from the data, not from the text of the source: active = GI50 up to about 1.1 µM and inactive = higher.
Measured GI50, listed per entry for reference.
measurement-type: GI50

[[record]]
compound = "CC(=O)OC1OC(c2ccoc2)C[C@@]12C1CCC3O[C@]3(C)[C@]1(C)C[C@H](OC(C)=O)[C@H]2C (stereo partly specified)"
assay_target = "HL-60"
measurement_type = "GI50"
experimental_result = "42.9 µM (inactive)"

[[record]]
compound = "C=CCn1c(N)c(C#N)c(C#N)c1CCC"
assay_target = "HL-60"
measurement_type = "GI50"
experimental_result = "> 100 µM (inactive)"

[[record]]
compound = "c1ccc(N/N=C2\\CC(c3ccccc3)Oc3ccccc32)cc1 (stereo unspecified)"
assay_target = "HL-60"
measurement_type = "GI50"
experimental_result = "38.2 µM (inactive)"

[[record]]
compound = "Cc1cc(C)n(C(=O)CSc2nnc(SCC(=O)n3nc(C)cc3C)s2)n1"
assay_target = "HL-60"
measurement_type = "GI50"
experimental_result = "> 100 µM (inactive)"

[[record]]
compound = "O=C1OC(c2cccc(C(F)(F)F)c2)c2ccc3ccccc3c21 (stereo unspecified)"
assay_target = "HL-60"
measurement_type = "GI50"
experimental_result = "5.5 µM (inactive)"

[[record]]
compound = "CN1CCN2CCN(C)CCN(CC1)CC2"
assay_target = "HL-60"
measurement_type = "GI50"
experimental_result = "> 100 µM (inactive)"

[[record]]
compound = "Cc1ccc(C(=O)O)cc1S(=O)(=O)Nn1cnc2ccc(S(=O)(=O)Nc3ccccc3C(=O)O)cc2c1=O"
assay_target = "HL-60"
measurement_type = "GI50"
experimental_result = "> 100 µM (inactive)"

[[record]]
compound = "COc1ccc(-c2c(C#N)c(=O)nc(SC)n2C2OCC(OC(C)=O)C(OC(C)=O)C2OC(C)=O)cc1 (stereo unspecified)"
assay_target = "HL-60"
measurement_type = "GI50"
experimental_result = "22.2 µM (inactive)"

[[record]]
compound = "N/N=C(\\Nc1ccccc1)SCc1ccccc1"
assay_target = "HL-60"
measurement_type = "GI50"
experimental_result = "> 100 µM (inactive)"

[[record]]
compound = "CC(C)(C)OC(=O)NCC(c1c[nH]c2cc(Br)ccc12)c1c[nH]c2cc(Br)ccc12"
assay_target = "HL-60"
measurement_type = "GI50"
experimental_result = "27.2 µM (inactive)"

[[record]]
compound = "C/N=c1\\ss/c(=N\\C(=S)N(C)C)n1C"
assay_target = "HL-60"
measurement_type = "GI50"
experimental_result = "> 100 µM (inactive)"


Data provenance is ChEMBL document CHEMBL1201862.
